Listed here are binders together with their documented pKi.
molecular target: T1, XIAP-BIR3 (human, UniProt P98170 241-356); assay: fluorescence polarization competition, SMAC-FAM probe
T1 construct: range 241-356; Expressed in E. coli from pET15b and purified on Ni-agarose
T1 sequence (P98170 241-356 limits assumed): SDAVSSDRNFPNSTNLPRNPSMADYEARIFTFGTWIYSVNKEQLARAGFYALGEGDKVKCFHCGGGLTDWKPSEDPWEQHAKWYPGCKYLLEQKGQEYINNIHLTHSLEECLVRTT
Would you please state pKi, meaning minus log10 of the concentration in mol/L, as a bare number?

Incoming: Please report the recorded pKi for AVPWGLKSE .
Outgoing: 6.27

As a next step, examine the binder that follows.
Incoming: Dear colleague, I am looking for the recorded pKi of the following binder: AIPFEEKSE
Outgoing: 6.23
